For each entry below, report its inhibition of cell viability value.
Test system: NCI-H1688
Assay: inhibition of cell viability relative to untreated control (fraction); higher = stronger growth inhibition, active = 0.5 or more
Conditions: 30 µM; 24 h
Numbers only.

# example entries with known answers
Oc1cc(O)c2c(c1)O[C@H](c1cc(O)c(O)c(O)c1)[C@H](O)C2 [Epigallocatechin]    -0.059
OC[C@@H](O)[C@@H](O)[C@H](O)[C@H](O)CO    -0.179
Oc1ccc(CC2NCCc3cc(O)c(O)cc32)cc1 (configuration not stated)    0.182
C[C@@H]1[C@H](O)[C@@H](C)/C=C/C=C/C=C/C=C/C=C/C=C/C=C/[C@H](O[C@@H]2O[C@H](C)[C@@H](O)[C@H](N)[C@@H]2O)C[C@@H]2O[C@](O)(C[C@@H](O)C[C@@H](O)[C@H](O)CC[C@@H](O)C[C@@H](O)CC(=O)O[C@H]1C)C[C@H](O)[C@H]2C(=O)O    0.0269
Cn1c(=O)c2[nH]cnc2n(C)c1=O    0.644

# map each compound to its inhibition of cell viability
1. O=c1c(-c2ccc(O)cc2)coc2cc(O[C@@H]3O[C@H](CO)[C@@H](O)[C@H](O)[C@H]3O)cc(O)c12
2. Oc1cc(O)c2c(c1)O[C@H](c1ccc(O)c(O)c1)[C@@H](O)C2 [(+)-Catechin Hydrate]

1: 0.279; 2: 0.159
